# Tested on: NCI-H522
# assay-comment: NCI tumour cell line growth inhibition, 48 h
Activity calls are given as the source filed them. Cut-off read from the data, not from the text of the source: active = GI50 up to about 1.1 µM and inactive = higher.
Classes used: active, inactive

| compound | discrete-label |
| --- | --- |
| CC1OC(OC2C(O[C@H]3CC[C@@]4(C)[C@@H](CC[C@@H]5[C@@H]4CC[C@]4(C)[C@@H]6[C@H](C[C@@H]54)O[C@]4(CC[C@@H](C)CO4)[C@H]6C)C3)OC(CO)C(OC3OC(CO)C(O)C(OC4OCC(O)C(O)C4O)C3OC3OCC(O)C(O)C3O)C2O)C(O)C(O)C1O (stereo partly drawn) | active |
| CC1=NCCc2cc3[nH]c4ccccc4c3cc21 | inactive |
| Nc1c(/C=C/c2cc3cc(C4=NCCN4)ccc3o2)[nH]c2cc(C3=NCCN3)ccc12 | inactive |
